Taken from paper PMC2915626.

# MIC (μg/mL) S. aureus values compiled below
- Test system: S. aureus
- Experiment description: Broth microdilution assay (MIC)
- Type: cell-based, Staphylococcus aureus
- Condition: 18 h
Ends that are not written are not given here.

{"columns": ["Substance", "MIC (μg/mL) S. aureus"],
 "data": [
  ["LHLIALRKK-NH2 [CopA1]", ">64 µg/mL"],
  ["LLCIALRKK-NH2 [CopA3]", "4 to 8 µg/mL"],
  ["LHRIALRKK-NH2 [CopA2]", ">64 µg/mL"],
  ["LRCIALRKK-NH2 [CopA4]", ">64 µg/mL"]
]}
